# tested_system: T1, human CD3 (human, UniProt P07766 23-207; P09693 23-182; P04234 22-171)
# T1 construct: whole, on cells; also called CD3 on Jurkat T cells; CD3 on primary human T cells
# method: flow competition on Jurkat, 100 nM unlabeled mAb; competitor AF488-SK7 1.5 nM
readout_type: % residual fluorescence of labeled mAb (%)
Report the figure in % without appending any unit label.

Answered examples (3):
binder: F332-4D6 (antibody, mouse IgG2a, V domains shown, also called F332-4D6-2; F322-4D6) VH: QVQLQQSGAELGKPGTSVKLSCKASGYTFTSYWIHWVKQRPGQGLEWIGNINPNSGSTNYNEKFKRKATLTADKSSSTAYMQLSTLTSEDFAVYYCTRDTSGQYYFDYWGQGTTLTVSS VL: DIVMSQSPSSLAVSAGEKVTMSCKSSQSLLNSRTRKNYLAWYQQKPGQSPKVLIYWASTRESGVPDRFTGSGSGTDFTLTISSVQAEDLAVYYCKQSYHLRTFGGGTKLEIK
% residual fluorescence of labeled mAb, %: 44
//
binder: F332-10B6 (antibody, mouse IgG2a, V domains shown, also called F332-10B6-2; F332-12B5-1) VH: QVQLQQPGAELGKPGTSVNLSCKASGYTFTDYWIHWVKQRPGQGLEWIGNINPNSGDTNYNENFKTKATLTVDRSSSTAYMQLSSLTSEDSAVYYCTRDISGQYYFDFWGQGTTLTVSS VL: DIVMSQSPSSLAVSAGEKVTMSCKSSQSLLNSRTRKNYLAWYQQKPGQSPKLLIYWASTRESGVPDRFTGSGSGTDFTLTISSVQAEDLAVYYCIQSYNLRTFGGGTKLEIK
% residual fluorescence of labeled mAb, %: 56
//
binder: F332-13B4 (antibody, mouse IgG2a, V domains shown, also called F332-13B4-2) VH: QVQLQQSGPELVKPGASVKISCKASGYSFTNSYVHWVKQTPGQGLEWIGWIYPGSTNIKYNEKFKGKATLTADTSSSTVYMQLSSLTSEDSAVYFCARDGSYFFDYWGQGTTLTVSS VL: DIVMSQSPSSLAVSAGEKVTMTCKSSQSLLNSRTRKNYLAWYQQKPGQSPKLLIYWASTRESGVPDRFTGSGSGTDFTLTISSVQAEDLAVYYCKQSYILRTFGGGTKLEIK
% residual fluorescence of labeled mAb, %: 43

input: Give % residual fluorescence of labeled mAb for the following binder: F332-7C9 (antibody, mouse IgG2a, V domains shown, also called F332-7C9-2; F332-7C9 (5C7, 7D10)) VH: QVQLQQSGPELVKPGASVRISCKASGYTFTSHYLHWVKQRPGQGFEWIGWIYPGDGNTRYNEKFKDRATLTADKSSSTAYLHLSSLTSEDSAVYFCARDAGYYFDYWGQGTTLAVSS VL: DIVMSQSPSSLAVSAGEKVTMSCKSSQSLLNSRTRKNYLAWYQQKPGQSLKVLIYWASTRESGVPDRFTGSGSGTDFTLTISSVQAEDLAVYYCKQSYSLRTFGGGTKLEIK
output: 42

input: # return recorded % residual fluorescence of labeled mAb for entry F332-5D4 (antibody, mouse IgG2b, V domains shown, also called F332-5D4-2; F332-5D4 (5F8)) VH: QVQLQQPGAELGKPGTSVKLSCKASGYTFTSYWMHWVKQRPGQGLEWIGNINPNGGDSNYNEKFKSKATLTVDMSSSTAYMQLSTLTSEDSAVYYCTRDISGQYYFDFWGQGTSLTVFS VL: DILMSQSPSSLAVSAGEQVTMSCKSSQSLLNSRTRKNYLAWYQQKPGQSPKLLIFWASTRKSGVPDRFTGSGSGTYFTLTINSVQTEDLAVYYCTQSYSLRTFGGGTKLEIK
output: 49
